system_under_test: Kappa Opioid Receptor (KOR) (Homo sapiens)
Construct: membranes used
assay_notes: biochemical
test_context: read-out: KOR EC50 (35S-GTPγS)
measured_metric: EC50

## Input Find EC50 (Kappa Opioid Receptor (KOR) (Homo sapiens)) for the entry `CN(C)C[C@H]1CCCC[C@]1(O)c1cccc(O)c1`
## Output > 2000 nM

###

system_under_test: Serotonin Transporter (SERT) (Homo sapiens)
measured_metric: IC50

## Input For the molecule `CC[C@@H](c1cccc(O)c1)[C@@H](C)CN(C)C` , what IC50 is on record?
## Output > 2 µM

###

system_under_test: Mu Opioid Receptor (MOR) (Homo sapiens, UniProt P35372)
Sequence (P35372 whole entry): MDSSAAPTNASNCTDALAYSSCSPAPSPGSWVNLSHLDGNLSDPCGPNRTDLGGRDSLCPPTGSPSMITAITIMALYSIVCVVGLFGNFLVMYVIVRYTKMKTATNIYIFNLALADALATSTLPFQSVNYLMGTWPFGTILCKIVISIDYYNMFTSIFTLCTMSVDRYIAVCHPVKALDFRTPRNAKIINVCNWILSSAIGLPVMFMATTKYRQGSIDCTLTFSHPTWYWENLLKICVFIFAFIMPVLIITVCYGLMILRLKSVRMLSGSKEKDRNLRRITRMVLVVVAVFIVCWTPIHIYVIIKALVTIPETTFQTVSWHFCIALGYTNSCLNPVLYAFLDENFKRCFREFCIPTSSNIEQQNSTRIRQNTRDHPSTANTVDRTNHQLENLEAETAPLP
measured_metric: Ki (nM)
Value expressed in nM; do not type the unit.

## Input Find Ki (Mu Opioid Receptor (MOR) (Homo sapiens, UniProt P35372)) for the entry CC[C@@H](c1cccc(O)c1)[C@@H](C)CN(C)C [Tapentadol]
## Output 2100

###

system_under_test: Cannabinoid Receptor Type 1 (CB1) (Homo sapiens, UniProt P21554)
Construct: membranes used
Sequence (P21554 whole entry): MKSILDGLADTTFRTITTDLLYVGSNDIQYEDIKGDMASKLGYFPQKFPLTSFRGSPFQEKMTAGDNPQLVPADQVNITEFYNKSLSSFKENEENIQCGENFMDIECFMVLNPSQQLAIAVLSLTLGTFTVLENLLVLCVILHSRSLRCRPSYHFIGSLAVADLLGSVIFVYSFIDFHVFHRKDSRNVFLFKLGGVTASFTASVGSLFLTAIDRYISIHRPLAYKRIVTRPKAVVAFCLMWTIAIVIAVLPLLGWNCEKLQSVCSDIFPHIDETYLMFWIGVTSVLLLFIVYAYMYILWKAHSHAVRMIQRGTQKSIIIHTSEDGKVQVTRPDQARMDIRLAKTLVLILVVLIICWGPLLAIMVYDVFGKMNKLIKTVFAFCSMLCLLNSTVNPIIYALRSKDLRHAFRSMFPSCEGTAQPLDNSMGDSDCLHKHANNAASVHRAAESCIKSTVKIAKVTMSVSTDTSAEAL
assay_notes: biochemical
measured_metric: EC50

## Input Find EC50 (Cannabinoid Receptor Type 1 (CB1) (Homo sapiens, UniProt P21554)) for the entry `CN1CC[C@]23c4c5ccc(O)c4O[C@H]2[C@@H](O)C=C[C@H]3[C@H]1C5`
## Output > 2000 nM

###

system_under_test: Serotonin Transporter (SERT) (Homo sapiens, UniProt P31645)
Sequence (P31645 whole entry): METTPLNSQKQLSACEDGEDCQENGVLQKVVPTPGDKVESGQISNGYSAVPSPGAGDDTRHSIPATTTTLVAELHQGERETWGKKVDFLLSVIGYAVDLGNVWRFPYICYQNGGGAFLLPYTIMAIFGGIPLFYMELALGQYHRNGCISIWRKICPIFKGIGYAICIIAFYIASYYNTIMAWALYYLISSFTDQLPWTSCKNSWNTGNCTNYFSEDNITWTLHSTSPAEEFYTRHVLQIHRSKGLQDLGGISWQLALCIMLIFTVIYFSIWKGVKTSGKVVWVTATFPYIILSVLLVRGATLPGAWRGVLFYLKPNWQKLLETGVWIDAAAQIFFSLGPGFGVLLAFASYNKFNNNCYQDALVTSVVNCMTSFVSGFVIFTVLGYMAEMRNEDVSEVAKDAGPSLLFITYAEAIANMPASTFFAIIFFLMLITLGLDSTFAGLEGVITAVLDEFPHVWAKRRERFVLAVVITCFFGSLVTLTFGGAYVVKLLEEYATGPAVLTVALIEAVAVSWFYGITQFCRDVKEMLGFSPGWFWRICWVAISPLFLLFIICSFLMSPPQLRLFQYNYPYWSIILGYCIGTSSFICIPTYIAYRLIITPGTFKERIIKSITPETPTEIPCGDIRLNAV
pKi: −log10 of the molar value.
measured_metric: pKi

## Input Find pKi (Serotonin Transporter (SERT) (Homo sapiens, UniProt P31645)) for the entry `CC[C@@H](c1cccc(O)c1)[C@@H](C)CN(C)C`
## Output < 5.70

###

system_under_test: Kappa Opioid Receptor (KOR) (Homo sapiens)
Construct: membranes used
assay_notes: biochemical
test_context: KOR EC50 (35S-GTPγS)
pEC50: −log10 of the molar value.
measured_metric: pEC50

## Input For the compound CC[C@@H](c1cccc(O)c1)[C@@H](C)CN(C)C [Tapentadol] , what pEC50 is on record?
## Output < 5.70

###

system_under_test: Kappa Opioid Receptor (KOR) (Homo sapiens, UniProt P41145)
Construct: membranes used
Sequence (P41145 whole entry): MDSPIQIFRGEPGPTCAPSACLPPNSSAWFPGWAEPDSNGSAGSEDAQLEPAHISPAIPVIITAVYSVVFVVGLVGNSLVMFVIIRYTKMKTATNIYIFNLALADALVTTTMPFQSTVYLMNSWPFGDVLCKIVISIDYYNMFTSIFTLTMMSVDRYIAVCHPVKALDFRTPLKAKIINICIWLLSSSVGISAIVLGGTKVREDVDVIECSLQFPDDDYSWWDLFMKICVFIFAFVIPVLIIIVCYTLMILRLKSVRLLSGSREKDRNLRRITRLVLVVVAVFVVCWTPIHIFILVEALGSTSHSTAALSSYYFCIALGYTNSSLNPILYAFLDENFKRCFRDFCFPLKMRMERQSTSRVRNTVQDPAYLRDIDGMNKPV
assay_notes: biochemical
Assay type: binding
test_context: read-out: Target Binding Affinity Determined by Competition Radioligand Binding–KI, KOR
measured_metric: Ki

## Input For the molecule CN(C)C[C@H]1CCCC[C@]1(O)c1cccc(O)c1 [O-Desmethyl-Tramadol, O-desmethyl-tramadol] , what Ki is on record?
## Output > 2 µM

###

system_under_test: Norepinephrine Transporter (NET) (Homo sapiens)
Construct: HA (N); host or cells: HEK293 (ATCC CRL-1573), electroporated, G418-selected population
Sequence (P23975 whole entry): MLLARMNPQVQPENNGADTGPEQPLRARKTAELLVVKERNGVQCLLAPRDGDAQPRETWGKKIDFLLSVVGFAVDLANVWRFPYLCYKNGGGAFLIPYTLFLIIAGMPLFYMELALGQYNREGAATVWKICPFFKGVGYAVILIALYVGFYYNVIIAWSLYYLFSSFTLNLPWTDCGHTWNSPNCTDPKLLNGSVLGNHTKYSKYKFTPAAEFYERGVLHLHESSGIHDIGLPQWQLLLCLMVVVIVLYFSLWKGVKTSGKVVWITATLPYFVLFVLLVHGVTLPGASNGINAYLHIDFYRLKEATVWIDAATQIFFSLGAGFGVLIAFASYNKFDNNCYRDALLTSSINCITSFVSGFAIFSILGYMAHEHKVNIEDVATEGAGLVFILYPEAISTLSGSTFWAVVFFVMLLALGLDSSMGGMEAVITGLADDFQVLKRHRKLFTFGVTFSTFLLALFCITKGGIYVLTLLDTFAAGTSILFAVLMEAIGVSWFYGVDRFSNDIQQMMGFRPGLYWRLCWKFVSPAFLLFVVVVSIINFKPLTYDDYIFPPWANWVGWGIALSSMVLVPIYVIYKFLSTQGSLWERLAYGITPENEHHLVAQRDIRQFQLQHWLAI
assay_notes: cell-based
measured_metric: IC50

## Input Find IC50 (Norepinephrine Transporter (NET) (Homo sapiens)) for the entry CC[C@@H](c1cccc(O)c1)[C@@H](C)CN(C)C [Tapentadol]
## Output > 2000 nM

###

# collection of Ki values tested on Sigma-1 Receptor (σ1R) (Homo sapiens, UniProt Q99720)
# Sequence (Q99720 whole entry): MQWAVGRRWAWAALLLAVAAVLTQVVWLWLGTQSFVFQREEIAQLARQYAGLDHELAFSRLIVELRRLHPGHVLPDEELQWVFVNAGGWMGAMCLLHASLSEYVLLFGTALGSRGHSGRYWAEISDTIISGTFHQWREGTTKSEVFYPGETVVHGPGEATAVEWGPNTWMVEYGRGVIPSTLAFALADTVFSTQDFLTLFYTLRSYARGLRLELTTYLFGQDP
Value expressed in µM; do not type the unit.

1. CC[C@@H](c1cccc(O)c1)[C@@H](C)CN(C)C [Tapentadol]	2.6

We next turn to a different molecule, shown below.
## Input For the molecule COc1ccc2c3c1O[C@H]1C(=O)CC[C@H]4[C@@H](C2)N(C)CC[C@]314 [Hydrocodone] , what Ki is on record?
## Output 4
